tested on: BT-549 breast; assay: NCI tumour cell line growth inhibition, 48 h
Class criterion met: TGI at least 40 µM. Class criterion not met: TGI below 40 µM.

Examples from the recorded data:
CC1(C)S[C@H](CN)N[C@H]1C(=O)OC(c1ccccc1)c1ccccc1; criterion met
CCN(CC)c1ccc(C2NC(=O)c3ccccc3N2)cc1 (stereo unspecified); criterion met
CCN(CC)CCC(CNc1ccnc2cc(Cl)ccc12)c1ccccc1 (stereo unspecified); criterion not met

Record O=C1NC(=S)NC(=O)C1=Cc1ccc(-c2ccccc2)cc1 ; criterion: TGI no lower than 40 µM. Met?
criterion met

Is reported TGI greater than or equal to 40 µM here: COc1ccc(Cl)cc1Nc1nc(C(F)(F)F)ccc1C(=O)N/N=C/c1cccnc1
criterion met

Evaluate COC(=O)c1cc(NC(=O)c2cc(NC(=O)Cc3c[nH]c4ccccc34)cn2C)cn1C : TGI at minimum 40 µM?
criterion met

Tell me whether TGI is at least 40 µM here: CN(C)C=NC1CCC(C(C)(C)C)CC1 (stereo unspecified)
criterion not met

Is TGI at least 40 µM? Consider ClCc1ccc(Cn2cnc3c(Cl)ncnc32)cc1
criterion met

----------
tested on: SW-620 colon; experiment: NCI tumour cell line growth inhibition, 48 h
PARAMETER_MEASURED: TGI

Take a look at these entries with their results.
C(=Nc1cnc2ccccc2c1)c1ccc2ccccc2n1; > 100 µM
COC1=C(OC)C(=O)C(Sc2ccc3ccccc3c2)=CC1=O; > 61 µM
CC1CCC(=O)C(C(O)CC2CC(=O)N(c3ccccc3)C(=O)C2)C1 (centres undefined); > 100 µM
COc1ccc(Cl)cc1Nc1nc(C(F)(F)F)ccc1C(=O)N/N=C/c1cccnc1; > 100 µM
COc1ccccc1/C=C/C1=C(C)CCC(c2ccccc2OC)C1C (centres undefined); > 100 µM
CCN(CC)c1ccc(C2NC(=O)c3ccccc3N2)cc1 (centres undefined); > 100 µM
C=C1C(=O)O[C@H]2C/C(C)=C/CC[C@]3(C)CCC[C@](C)(CC[C@@H]12)O3; 17.7 µM
COc1ccc2nc(-c3ccccc3)cc(Nc3cccc(C(C)=O)c3)c2c1; 15.1 µM

Short answer please: TGI, SW-620 colon, entry O=C(COc1ccc(OCC(=O)N2C(=O)CN(c3ccccc3)C2=S)cc1)N1C(=O)CN(c2ccccc2)C1=S
> 100 µM

Could you share what TGI was measured for O=C(N/N=C(/c1nc2ccc([N+](=O)[O-])cc2[nH]c1=O)C(O)c1ccc([N+](=O)[O-])cc1)c1ccncc1 (centres undefined) , tested on SW-620 colon?
> 100 µM

Form entry - test system: SW-620 colon; read-out: TGI; compound: Oc1cc(CN2CCOCCOCCOCCOCC2)c(O)cc1CN1CCOCCOCCOCCOCC1
53.1 µM

Enter reported TGI observed with SW-620 colon for CC1(C)OCN(c2ccc(S(N)(=O)=O)cc2)Cn2c1nc1ccccc12
> 100 µM

Observed TGI on SW-620 colon for NC(=O)CC1(O)C=C(Br)C(=O)C(Br)=C1 , please.
3.47 µM

Field: TGI (SW-620 colon). Entry: COC(=O)c1nn2ccc3ccccc3c2c1C(=O)OC
> 100 µM

Query the reported TGI for SW-620 colon; item: Cc1cccc(/C=N\NC(=S)N2CCCCC2)n1
> 100 µM

Which measured TGI belongs to COc1cccc(/C=N/[N-]C(N)=O)c1[O-].[Ni+2].[OH3+] , tested on SW-620 colon?
0.371 µM

Recall the recorded TGI for Clc1ccc(OCc2nnc3n2N=C(c2ccc(Br)cc2)CS3)cc1 with SW-620 colon and state it.
> 100 µM

I'm curious: which TGI was measured for CC(C)CC1c2[nH]c3ccccc3c2C[C@H]2C(=O)NC(CCCCNC(=O)OC(C)(C)C)C(=O)N12 (some centres undefined) tested on SW-620 colon?
> 100 µM

Find the measured TGI: item CCOC(=O)c1nc2ccccc2nc1Nc1ccc(OC)cc1 , target or system SW-620 colon.
> 100 µM

Hello, I am looking for reported TGI with SW-620 colon for COc1cc(C2c3cc4c(cc3OC(NCCc3ccccc3)C2C)OCO4)cc(OC)c1OC (centres undefined) . Could you help?
> 100 µM

Observed TGI on SW-620 colon for CC(=O)C1(C)CC(C#N)(C#N)C(C#N)=C1N (centres undefined) , please.
> 100 µM

Notebook entry, SW-620 colon assay: TGI of [N-]=[N+]=Nc1ccc2c(c1)Sc1ccccc1N2CCCCN1CCN(Cc2ccc(C(=O)c3ccc(CSCC(N)C(=O)O)cc3)cc2)CC1 (centres undefined) = ?
4.79 µM

Which measured TGI belongs to CC[C@]1(O)CC2CN(CCc3c([nH]c4ccccc34)[C@@](C(=O)OC)(c3cc4c(cc3OC)N(C=O)[C@H]3[C@@](O)(C(=O)OC)[C@H](OC(C)=O)[C@]5(CC)C=CCN6CC[C@]43[C@@H]65)C2)C1 (some centres undefined) , tested on SW-620 colon?
> 50 µM

# get_value(readout= TGI, system= SW-620 colon) for CC(=O)OCC1OC(OCc2ccccc2)C(Br)C(OC(C)=O)C1OC(C)=O (centres undefined)
> 100 µM

// map O=C(O)C(O)C(O)C(O)C(O)C(=O)O (centres undefined) to recorded TGI (system: SW-620 colon)
> 100 µM

For the record CCOc1ccc(OCC)c([P+](c2ccccc2)(c2ccccc2)c2ccccc2)c1 , what value of TGI is listed for SW-620 colon?
13.1 µM

Form: Entry = CC(C)N(C(=O)C12C3C4C1C1C2C3C41I)C(C)C (centres undefined) | System = SW-620 colon | TGI = ____
> 100 µM

SW-620 colon / TGI / CC(C)CCC[C@@H](C)C1CCC2[C@@H]3CCC4C[C@@H](NS(C)(=O)=O)CC[C@]4(C)C3CC[C@@]21C (some centres undefined) : value?
> 100 µM

Form field: TGI recorded for CCOC(=O)[C@@H]1ON2O[C@H](OC3CCCCC3c3ccccc3)C[C@H]3OC(=O)[C@@H]1C32 (some centres undefined) with SW-620 colon (enter value)
> 100 µM

Fill in the recorded TGI for this compound, with SW-620 colon as test system: N/C(=N\N=C\c1cc(I)cc(I)c1O)NO
> 100 µM

Observed TGI on SW-620 colon for COc1cc(OC)c2c(=O)c3c([N+](=O)[O-])cccc3n(C)c2c1 , please.
> 100 µM

Please state recorded TGI (tested on SW-620 colon) of CCN(CC)CCN1C(=O)C2C3C(=O)CC(C)(CC3C)C2C1=O (centres undefined)
> 100 µM

Form: Entry = CCCCC(/C=C\COC1CCCCO1)=C/C(=O)OCC (centres undefined) | System = SW-620 colon | TGI = ____
> 100 µM

Recall the recorded TGI for CCc1[nH]c(=O)c2oc3cc4ccccc4cc3c2c1C(=O)O with SW-620 colon and state it.
> 10 µM

Write down the reported TGI of CCCCNC(=NCc1ccccc1)NC#N , test system: SW-620 colon.
> 100 µM

Form field: TGI recorded for CN(C)C(=O)OC1=CC2CCC(C1)N2C (centres undefined) with SW-620 colon (enter value)
> 100 µM

----------
test system: HS 578T breast; experiment: NCI tumour cell line growth inhibition, 48 h
PARAMETER_MEASURED: TGI

CC(C)[Si]1(C(C)C)OCC2OC(n3c(C(=O)c4ccccc4)cc(=O)[nH]c3=O)CC2O[Si](C(C)C)(C(C)C)O1 (stereo unspecified); 5.5 µM
CCN(CC)CCN1C(=O)C2C3C(=O)CC(C)(CC3C)C2C1=O (stereo unspecified); > 100 µM
Cc1ccc(/C=C/c2c(C(=O)/C=C/c3ccc(Cl)cc3)c(C)nc3ccccc23)cc1; 8.66 µM
CCN(CC)C(=S)SC1C(=O)NC(=O)NC1=O; > 100 µM
CC1(C)S[C@H](CN)N[C@H]1C(=O)OC(c1ccccc1)c1ccccc1; > 100 µM

I have this compound here, Cc1cccc(/C=N\NC(=S)N2CCCCC2)n1 , and I need its recorded TGI.
> 100 µM

Name the reported TGI value associated with the compound Oc1cnc2c(O)cccc2c1
> 100 µM

Data request, read-out TGI, for C[C@@H](NC(=O)c1ncnc(N)c1Cl)c1ncc(C(=O)Nc2cc(C(F)(F)F)c(Cl)cn2)s1
98.9 µM

For the compound OCCCSCCO , what TGI is on record?
> 100 µM

Entry under review: CN=C(N)N=Nc1c(O)[nH]c2ccccc12 . Reported TGI?
> 100 µM

Consider the compound O=C(Cc1csc2nc(-c3ccc(Cl)cc3)cn12)N/N=C/c1ccccc1O and give its measured TGI.
> 100 µM

----------
system: TK-10 renal; experiment: NCI tumour cell line growth inhibition, 48 h
In this section we review reported TGI values for a set of compounds.

Which measured TGI value corresponds to CC1CCC(=O)C(C(O)CC2CC(=O)N(c3ccccc3)C(=O)C2)C1 (configuration not stated) ?
> 100 µM

For COc1cc(C2c3cc4c(cc3OC(NCCc3ccccc3)C2C)OCO4)cc(OC)c1OC (configuration not stated) , what is its reported TGI?
> 100 µM

Looking for the measured TGI of O=C(CO[N+](=O)[O-])OC/C=C/c1ccccc1 , can you help?
> 100 µM

Given the entry NC(Cc1c[nH]c2ccc(F)cc12)C(=O)O (configuration not stated) , report its measured TGI.
> 2500 µM

Quick check: TGI of COc1cc(/C=C/C(=O)N2CCC=CC2=O)cc(OC)c1OC ?
6.76 µM

If you can, please state the reported TGI value of C/C(=N\n1c(O)c(C#N)cc(C#N)c1=O)c1ccncc1 .
> 100 µM

Consider the compound shown here: C/C(=N\NC(=S)NC(CCC(=O)O)C(=O)O)c1cnccn1 (configuration not stated) What is its recorded TGI?
> 100 µM

Look up TGI: C[C@@H]1CCC2C(C)(C)C(/C=C\C=O)C3(C)OC213 (some centres not stated)
> 100 µM

Query: TGI; subject: COc1cc(C2SCC(=O)N2c2ccc(NC(C)=O)cc2)cc(OC)c1OC (configuration not stated)
> 100 µM

Fill in: TGI of C/C(=N/NC(=O)C[n+]1ccccc1)C(CN(CC(C)C)CC(C)C)C(=O)Nc1ccc(C)cc1C (configuration not stated) is ___
> 100 µM

Data request, read-out TGI, for CC[C@]1(O)CC2CN(CCc3c([nH]c4ccccc34)[C@@](C(=O)OC)(c3cc4c(cc3OC)N(C=O)[C@H]3[C@@](O)(C(=O)OC)[C@H](OC(C)=O)[C@]5(CC)C=CCN6CC[C@]43[C@@H]65)C2)C1 (some centres not stated)
9.86 µM

State the recorded TGI for this entry: Cc1ccc(NC(=O)Nc2c(Cl)cccc2Cl)cn1
41.6 µM
